All figures here come from patent EP4140481A1.

- Tested on: Mur16 and/or Mur46
- METHOD NOTES: Biacore Surface Plasmon Resonance (SPR) screening, binding to the target structures
- SETTINGS: third analog screening; binding to the target structure in comparison to parent compound
- Description: Exon 1 of the HTT huntingtin (NCBI Gene ID 3064) was expressed as a fusion protein with (i) TRX only (MurTRX); (ii) 16Q (Mur16); and (iii) 46Q (Mur46). MurTRX, Mur16, and Mur46 were produced and purified by HIStag and size exclusion chromatography (SEC). The protocol for MurTRX, Mur16 and Mur46 expression was adopted from Bennett, M.J. et al. Proc. Natl. Acad. Sci. USA 99, 11634-11639. 2002. Primary Screen - Results - 39 compounds determined from the in-silico screen were tested. […]

STRUCTURE AS SMILES | Binding properties
CC(C)N(CCNC(=O)c1ccc2[nH]c3c(c2c1)CCCC3)C(C)C | ++
Cc1[nH]c2ccc(C(=O)NCCN(C)C3CCCC3)cc2c1C | ++
Cc1[nH]c2ccc(C(=O)N(C)CCN(C)C3CC3)cc2c1C | +/-
Cc1[nH]c2ccc(C(=O)Nc3ccccc3NC3CCN(C)CC3)cc2c1C | ++

---

- TARGET OF ASSAY: mHTT (Homo sapiens)
- Construct: host or cells: ST HDH Q111/111 mouse striatal cell line (knock-in locus)
- Sequence (P42858 with tags, fused parts or gaps with the stated changes): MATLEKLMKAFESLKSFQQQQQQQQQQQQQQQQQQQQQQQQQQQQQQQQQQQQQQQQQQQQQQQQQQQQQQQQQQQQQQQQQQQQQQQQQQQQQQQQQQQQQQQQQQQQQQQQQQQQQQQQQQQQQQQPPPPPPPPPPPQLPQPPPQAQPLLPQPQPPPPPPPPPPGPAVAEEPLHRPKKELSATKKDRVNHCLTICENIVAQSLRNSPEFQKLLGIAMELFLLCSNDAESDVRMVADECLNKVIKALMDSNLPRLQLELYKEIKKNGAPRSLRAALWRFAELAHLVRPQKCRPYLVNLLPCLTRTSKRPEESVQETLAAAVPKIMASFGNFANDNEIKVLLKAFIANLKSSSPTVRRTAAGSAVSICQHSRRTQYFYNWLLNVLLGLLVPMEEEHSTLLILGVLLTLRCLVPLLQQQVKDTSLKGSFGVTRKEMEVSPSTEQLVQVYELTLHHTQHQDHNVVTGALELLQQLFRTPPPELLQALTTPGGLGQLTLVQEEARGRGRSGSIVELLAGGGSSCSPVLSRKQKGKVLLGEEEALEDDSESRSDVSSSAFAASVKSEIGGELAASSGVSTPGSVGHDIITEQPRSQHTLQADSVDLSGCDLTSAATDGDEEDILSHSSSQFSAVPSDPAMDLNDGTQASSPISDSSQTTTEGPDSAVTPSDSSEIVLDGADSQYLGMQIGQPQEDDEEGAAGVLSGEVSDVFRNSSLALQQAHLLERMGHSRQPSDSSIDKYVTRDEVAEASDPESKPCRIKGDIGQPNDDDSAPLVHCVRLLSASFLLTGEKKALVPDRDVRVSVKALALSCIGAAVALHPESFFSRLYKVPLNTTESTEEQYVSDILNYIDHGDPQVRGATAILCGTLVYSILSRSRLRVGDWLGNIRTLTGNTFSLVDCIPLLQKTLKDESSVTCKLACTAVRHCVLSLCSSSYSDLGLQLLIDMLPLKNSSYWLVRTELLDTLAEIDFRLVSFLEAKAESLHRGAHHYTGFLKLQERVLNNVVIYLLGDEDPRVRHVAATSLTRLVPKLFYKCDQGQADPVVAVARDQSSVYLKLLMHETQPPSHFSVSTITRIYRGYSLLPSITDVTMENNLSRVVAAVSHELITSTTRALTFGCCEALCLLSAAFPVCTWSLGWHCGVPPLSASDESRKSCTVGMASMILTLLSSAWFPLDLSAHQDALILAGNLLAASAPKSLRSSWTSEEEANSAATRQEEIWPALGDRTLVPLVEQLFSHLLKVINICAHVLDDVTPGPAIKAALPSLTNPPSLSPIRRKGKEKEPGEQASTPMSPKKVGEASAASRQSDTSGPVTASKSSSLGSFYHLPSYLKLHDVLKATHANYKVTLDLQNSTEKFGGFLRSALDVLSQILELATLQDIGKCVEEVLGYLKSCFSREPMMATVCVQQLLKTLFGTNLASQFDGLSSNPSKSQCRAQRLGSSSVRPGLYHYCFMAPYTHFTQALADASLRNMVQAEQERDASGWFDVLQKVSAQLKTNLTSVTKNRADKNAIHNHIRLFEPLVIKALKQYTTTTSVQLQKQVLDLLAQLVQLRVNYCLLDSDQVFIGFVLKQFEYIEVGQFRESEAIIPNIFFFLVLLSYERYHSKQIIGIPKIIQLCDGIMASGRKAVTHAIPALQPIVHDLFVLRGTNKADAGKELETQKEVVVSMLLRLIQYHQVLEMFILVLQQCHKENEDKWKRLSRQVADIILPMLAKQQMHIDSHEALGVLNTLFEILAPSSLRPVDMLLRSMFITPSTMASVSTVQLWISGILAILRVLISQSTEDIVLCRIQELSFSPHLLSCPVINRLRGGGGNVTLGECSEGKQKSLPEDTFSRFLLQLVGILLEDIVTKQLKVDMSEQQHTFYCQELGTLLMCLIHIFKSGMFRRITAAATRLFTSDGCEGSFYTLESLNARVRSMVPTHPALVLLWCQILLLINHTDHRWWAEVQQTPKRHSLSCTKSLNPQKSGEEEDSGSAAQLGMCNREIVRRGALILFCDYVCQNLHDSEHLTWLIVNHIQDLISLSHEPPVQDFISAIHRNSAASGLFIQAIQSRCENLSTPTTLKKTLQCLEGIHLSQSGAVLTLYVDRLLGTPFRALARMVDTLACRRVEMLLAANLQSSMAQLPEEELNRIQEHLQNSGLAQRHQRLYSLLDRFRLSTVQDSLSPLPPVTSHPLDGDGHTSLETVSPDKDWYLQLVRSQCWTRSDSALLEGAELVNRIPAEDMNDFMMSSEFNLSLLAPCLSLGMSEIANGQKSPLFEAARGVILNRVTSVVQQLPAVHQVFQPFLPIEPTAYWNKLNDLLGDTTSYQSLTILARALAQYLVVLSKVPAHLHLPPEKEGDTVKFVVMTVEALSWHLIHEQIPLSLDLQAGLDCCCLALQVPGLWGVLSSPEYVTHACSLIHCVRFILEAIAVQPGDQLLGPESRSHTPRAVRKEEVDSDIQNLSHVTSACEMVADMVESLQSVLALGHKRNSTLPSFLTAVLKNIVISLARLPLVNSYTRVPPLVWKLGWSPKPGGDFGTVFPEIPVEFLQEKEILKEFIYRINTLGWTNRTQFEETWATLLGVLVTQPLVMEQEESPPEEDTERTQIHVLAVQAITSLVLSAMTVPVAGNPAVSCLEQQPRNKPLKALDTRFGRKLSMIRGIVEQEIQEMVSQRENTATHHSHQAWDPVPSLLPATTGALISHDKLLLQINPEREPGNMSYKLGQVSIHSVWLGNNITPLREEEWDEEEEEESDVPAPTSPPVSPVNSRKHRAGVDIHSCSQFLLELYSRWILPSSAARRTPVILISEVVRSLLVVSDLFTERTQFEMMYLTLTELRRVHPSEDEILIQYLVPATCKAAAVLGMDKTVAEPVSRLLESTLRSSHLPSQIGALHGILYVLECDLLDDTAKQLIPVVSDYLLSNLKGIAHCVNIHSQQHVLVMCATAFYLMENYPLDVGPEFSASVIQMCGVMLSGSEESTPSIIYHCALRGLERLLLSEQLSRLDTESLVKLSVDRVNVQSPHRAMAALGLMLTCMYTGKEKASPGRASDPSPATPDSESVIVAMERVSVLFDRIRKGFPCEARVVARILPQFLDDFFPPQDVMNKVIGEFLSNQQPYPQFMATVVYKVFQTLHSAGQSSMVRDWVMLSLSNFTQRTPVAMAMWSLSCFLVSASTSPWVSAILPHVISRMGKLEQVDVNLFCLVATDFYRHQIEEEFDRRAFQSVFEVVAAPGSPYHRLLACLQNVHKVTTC
- METHOD NOTES: mHTT levels in striatal cells (immunocytochemistry)
- Format: cell-based, mouse
- SETTINGS: STHdh 111/111; 10 µM; 3 hours heat shock, 48 hours treatment; percentage in comparison to untreated STHdh 111/111; 3B5H10 antibody; read-out: mHTT after treatment
RECORDED METRIC: remaining activity at 10 µM
Remember to quote the unit after the number.

In the examples that follow, each entry is paired with its recorded remaining activity at 10 µM.
MOLECULE | RECORDED METRIC | REPORTED VALUE
CCc1[nH]c2ccc(C(=O)NCCN3CCCCC3)cc2c1C [Compound 23] | remaining activity at 10 µM | 47%
CCc1[nH]c2ccc(C(=O)NCCN3CCOCC3)cc2c1C [Compound 30] | remaining activity at 10 µM | 51%
CCN(CC)CCNC(=O)c1ccc2[nH]c(C)c(C)c2c1 [Compound 21] | remaining activity at 10 µM | 46%
O=C(NCCN1CCCCC1)c1ccc2[nH]c3c(c2c1)CCC3 [Compound 35] | remaining activity at 10 µM | 56%
O=C(NCCN1CCOCC1)c1ccc2[nH]c3c(c2c1)CCCC3 [Compound 12] | remaining activity at 10 µM | 40%
CN1CCN(CCNC(=O)c2ccc3[nH]c4c(c3c2)CCC4)CC1 [Compound 10] | remaining activity at 10 µM | 40%

Hey, can you go through the list below and give me remaining activity at 10 µM for every item?
1. CC(C)N(CCNC(=O)c1ccc2[nH]ccc2c1)C(C)C [Compound 43]
2. CCc1c(C)[nH]c2ccc(C(=O)NCCN3CCC3)cc12 [Compound 33]
3. CN1CCN(CCNC(=O)c2ccc3[nH]c4c(c3c2)CCCC4)CC1 [Compound 36]

a:
["65%", "55%", "56%"]

For every record below, what is its remaining activity at 10 µM?
1. Cc1c(C)n(C)c2ccc(C(=O)NCCN(C)C)cc12 [Compound 41]
2. CN(C)CCNC(=O)c1ccc2[nH]c3c(c2c1)CCCC3 [Compound 3]

a:
65%
33%

Quick request: remaining activity at 10 µM for each listed item, please.
1. O=C(NCCN1CCCC1)c1ccc2[nH]c3c(c2c1)CCCC3 [Compound 13]
2. CCc1c(C)[nH]c2ccc(C(=O)NCCN3CCN(C)CC3)cc12 [Compound 15]

a:
["41%", "42%"]
